# test-method-notes: Inhibition of recombinant human full length PKA using kemptide substrate after 80 mins by luminescence mode
pIC50: −log10 of the molar value.
# pIC50 per record follows

| structure-smiles | pIC50 |
| --- | --- |
| O=C(NCCCc1ccccc1)Nc1ccc(-c2cn[nH]c2)cc1 | < 4.70 |
| COc1cc(CNC(=O)Nc2ccc(-c3cn[nH]c3)cc2)cc(OC)c1 | < 4.70 |
| CNC(=O)N(C)c1ccc(-c2cn[nH]c2)cc1 | < 4.70 |

Proceed to the following item.
Given the molecule O=C(NCC1CCCCC1)Nc1ccc(-c2cn[nH]c2)cc1 , what is its reported pIC50?
< 4.70
